- Test system: HCC 2998
- Assay Summary: NCI tumour cell line growth inhibition, 48 h
The source made the active and inactive calls. Rule as the data show it: active = GI50 up to about 1.1 µM and inactive = higher.
Metric: GI50

Reference set (4 entries):
Compound: c1ccc(C(NC2CCCCC2NCCNC2CCCCC2NC(c2ccccc2)(c2ccccc2)c2ccccc2)(c2ccccc2)c2ccccc2)cc1 (stereo unspecified)
GI50: > 10 µM (inactive)

Compound: CCOC(=O)c1cnc2c(ccc3ncccc32)c1OCC
GI50: > 100 µM (inactive)

Compound: Cc1[nH]c2c(C)ccc(C)c2c1CC(=O)O
GI50: 29.6 µM (inactive)

Compound: Cc1cc(N(CCC#N)CCC#N)ccc1/C=C1/N=C(c2ccccc2)N(N)C1=O
GI50: > 100 µM (inactive)

In: Dear colleague, I am looking for the recorded GI50 of the following compound: CC1=C(c2cc(C(=O)Nc3ccc(Cl)cc3)nc(S)n2)Sc2ccccc2N1
Out: > 100 µM (inactive)

In: Dear colleague, I am looking for the recorded GI50 of the following compound: Cc1ccc(/C=C2\N=C(N3CCOCC3)NC2=O)cc1
Out: > 100 µM (inactive)

In: Dear colleague, I am looking for the recorded GI50 of the following compound: COc1ccc(-c2nc(SC)n(C3OC(COC(C)=O)C(OC(C)=O)C(OC(C)=O)C3OC(C)=O)c(=O)c2C#N)cc1 (stereo unspecified)
Out: > 100 µM (inactive)

In: Dear colleague, I am looking for the recorded GI50 of the following compound: Cc1cn([C@H]2C[C@](C)(CO)N(C)O2)c(=O)[nH]c1=O
Out: > 100 µM (inactive)

====

- System: RXF 393
- Assay Summary: NCI tumour cell line growth inhibition, 48 h
Calls of active or inactive are those of the source. No stated cut-off is given here; in the data, active = GI50 up to about 1.1 µM and inactive = higher.
Metric: GI50

Reference set (10 entries):
Compound: CCC(=O)NCCc1c2c3c(ccnc3c3ncsc13)-c1ccccc1N2 [KUANONIAMINE C]
Assayed Target: RXF 393
Metric: GI50
Result: 4.16 µM (inactive)

Compound: CC1=NN(c2ccccc2)C(=O)C1/N=N/c1ccc(S(N)(=O)=O)cc1 (stereo unspecified)
Assayed Target: RXF 393
Metric: GI50
Result: > 100 µM (inactive)

Compound: COC(=O)C(C#N)=C1c2ccccc2Oc2ccccc21
Assayed Target: RXF 393
Metric: GI50
Result: 38.5 µM (inactive)

Compound: COc1cccc2c1C(=O)c1c(O)c3c(c(O)c1C2=O)C[C@@](O)(C(C)=O)C[C@@H]3OC1CC([N+]([O-])(Cc2ccccc2)Cc2ccccc2)C(O)C(C)O1 (stereo partly specified)
Assayed Target: RXF 393
Metric: GI50
Result: 1.21 µM (inactive)

Compound: CCCNC(=S)N/N=C1\C(=O)Nc2ccccc21
Assayed Target: RXF 393
Metric: GI50
Result: > 100 µM (inactive)

Compound: O=C(O)c1nnsc1-c1csnn1
Assayed Target: RXF 393
Metric: GI50
Result: > 100 µM (inactive)

Compound: CCN(CC)CCCNC(=O)C1COc2cc(-c3cc(=O)c4ccccc4o3)ccc2O1 (stereo unspecified)
Assayed Target: RXF 393
Metric: GI50
Result: 39.8 µM (inactive)

Compound: CCCCc1c2c(nc3c1CCCC3=O)C(=O)CCC2
Assayed Target: RXF 393
Metric: GI50
Result: > 100 µM (inactive)

Compound: O=C1c2ccccc2C(=O)c2c1cc(S(=O)(=O)O)c(O)c2O [Alizarin Red S]
Assayed Target: RXF 393
Metric: GI50
Result: > 100 µM (inactive)

Compound: CN(C)c1ccc(C(C#N)NNC(=O)Cc2ccccc2)cc1 (stereo unspecified)
Assayed Target: RXF 393
Metric: GI50
Result: > 100 µM (inactive)

In: Dear colleague, I am looking for the recorded GI50 of the following compound: CCN(CC)CCCNC(=O)Cc1ccccc1Nc1c(Cl)cccc1Cl
Out: 15.8 µM (inactive)

In: Dear colleague, I am looking for the recorded GI50 of the following compound: Nc1ccccc1C#CC(=O)c1cccc(C(F)(F)F)c1
Out: 2.25 µM (inactive)

In: Dear colleague, I am looking for the recorded GI50 of the following compound: O=C1C2=C(CC3C(C2)C3(Br)Br)C(=O)C2=C1CC1C(C2)C1(Br)Br (stereo unspecified)
Out: > 100 µM (inactive)

In: Dear colleague, I am looking for the recorded GI50 of the following compound: Cn1c(Nc2ccccc2)c(/C=N\c2ccccc2)c(=O)n(C)c1=O
Out: 75.9 µM (inactive)

In: Dear colleague, I am looking for the recorded GI50 of the following compound: Nc1nnc2n1C(=O)C(C1(C3=Nc4nnc(N)n4C3=O)Cc3ccccc3C1=O)=N2
Out: > 100 µM (inactive)

Values were extracted from ChEMBL document CHEMBL1201862.
